# assay_protocol: Stability in simulated gastric fluid
# Format: in vitro ADME
# test_context: 2 μM, 37° C., 24 h, pH 1.5, pepsin
Is % degradation in 24 h when incubated with simulated gastric fluid at least 40%? Then criterion met. If not, criterion not met.

[
  {
    "molecule": "CCc1cc(OC)ccc1-c1ccc(CC(NC(=O)[C@H](CC(=O)O)NC(=O)[C@H](CO)NC(=O)[C@@H](NC(=O)C(C)(Cc2ccccc2F)NC(=O)[C@@H](NC(=O)CNC(=O)[C@H](CCC(N)=O)NC(=O)[C@H](C)NC(=O)[C@@H](N)Cc2c[nH]cn2)[C@@H](C)O)[C@@H](C)O)C(=O)NC(Cc2ccc(-c3ccccc3C)nc2)C(N)=O)cc1 (single isomer, unassigned)",
    "class": "criterion not met"
  }
]

API: above_or_equal(metric=% degradation in 24 h when incubated with simulated gastric fluid, cutoff=40%) for item CCc1cc(OC)ccc1-c1ccc(CC(NC(=O)[C@H](CC(=O)O)NC(=O)[C@H](CO)NC(=O)[C@@H](NC(=O)C(C)(Cc2ccccc2F)NC(=O)[C@@H](NC(=O)CNC(=O)[C@H](CCC(N)=O)NC(=O)[C@H](C)NC(=O)[C@@H](N)Cc2c[nH]cn2)[C@@H](C)O)[C@@H](C)O)C(=O)NC(Cc2ccc(-c3ccccc3C)cc2)C(N)=O)cc1 (single isomer, unassigned)
criterion not met

Does % degradation in 24 h when incubated with simulated gastric fluid meet or surpass 40% for CCc1cc(OC)ccc1-c1ccc(CC(NC(=O)[C@H](CC(=O)O)NC(=O)[C@H](CO)NC(=O)[C@@H](NC(=O)[C@H](Cc2ccccc2)NC(=O)[C@@H](NC(=O)CNC(=O)[C@H](CCC(N)=O)NC(=O)[C@H](CO)NC(=O)[C@@H](N)Cc2c[nH]cn2)[C@@H](C)O)[C@@H](C)O)C(=O)NC(Cc2ccc(-c3ccccc3F)cc2)C(N)=O)cc1 (single isomer, unassigned) ?
criterion met

Decide: is the reported value of % degradation in 24 h when incubated with simulated gastric fluid for CCc1cc(OC)ccc1-c1ccc(CC(NC(=O)[C@H](CC(=O)O)NC(=O)[C@H](CO)NC(=O)[C@@H](NC(=O)C(C)(Cc2ccccc2F)NC(=O)[C@@H](NC(=O)CNC(=O)[C@H](CCC(N)=O)NC(=O)C(C)(C)NC(=O)[C@@H](N)Cc2c[nH]cn2)[C@@H](C)O)[C@@H](C)O)C(=O)NC(Cc2ccc(-c3ccccc3C)nc2)C(N)=O)cc1 (single isomer, unassigned) equal to or greater than 40%?
criterion not met

Determine whether this molecule has % degradation in 24 h when incubated with simulated gastric fluid no lower than 40%: CCc1cc(OC)ccc1-c1ccc(CC(NC(=O)[C@H](CC(=O)O)NC(=O)[C@H](CO)NC(=O)[C@@H](NC(=O)[C@H](Cc2ccccc2)NC(=O)[C@@H](NC(=O)CNC(=O)[C@H](CCC(N)=O)NC(=O)C(C)(C)NC(=O)[C@@H](N)Cc2c[nH]cn2)[C@@H](C)O)[C@@H](C)O)C(=O)NC(Cc2ccc(-c3ccccc3C(F)(F)F)cc2)C(N)=O)cc1 (single isomer, unassigned)
criterion met
